The measured values listed here are drawn from patent US20210032312A1.

Molecular target: T1, human CD8 alpha (CD8A) on primary human CD8+ T cells (human, UniProt P01732 22-235)
T1 construct: whole, on cells; also called hCD8A
T1 sequence (P01732 22-235): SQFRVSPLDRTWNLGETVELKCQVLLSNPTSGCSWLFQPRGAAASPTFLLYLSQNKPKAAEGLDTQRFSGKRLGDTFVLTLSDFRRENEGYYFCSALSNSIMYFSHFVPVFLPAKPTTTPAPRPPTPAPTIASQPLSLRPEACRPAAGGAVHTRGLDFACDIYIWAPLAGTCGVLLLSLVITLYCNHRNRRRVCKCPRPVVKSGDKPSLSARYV
Assay: flow cytometry, human CD8+ T cells, 0.2 uM FN3
metric: Human T-cell Binding 0.2 uM (MFI)

Short answer for P283AR9P1362_F2 (designed binder, FN3 domain) LPAPKNLVVSRVTEDSARLSWRKKDHPFDSFLIQYQESEKVGEAIVLTVPGSERSYDLTGLKPGTEYTVSIYGVDVKYDIDSRPISSNPLSAIFTT : Human T-cell Binding 0.2 uM (MFI) was 1370 MFI

Short answer for P283AR9P1362_G11 (designed binder, FN3 domain) LPAPKNLVVSRVTEDSARLSWRKEATSFDSFLIQYQESEKVGEAIVLTVPGSERSYDLTGLKPGTEYTVSIYGVDVKYDIDSRPISSNPLSAIFTT : Human T-cell Binding 0.2 uM (MFI) was 3530 MFI

Short answer for P282DR9P1359_B2 (designed binder, FN3 domain) LPAPKNLVVSRVTEDSARLSWTAPDAAFDSFWIAYTEWPIPYEEAGQEGEAIVLTVPGSERSYDLTGLKPGTEYWVSIYGVKGGPNSQPLSAIFTT : Human T-cell Binding 0.2 uM (MFI) was 2730 MFI

Short answer for P282FR9P1361_A3 (designed binder, FN3 domain) LPAPKNLVVSRVTEDSARLSWTAPDAAFDSFDIWYAEYGYPGEAIVLTVPGSERSYDLTGLKPGTEYDVAIVGVKGGNRSYPLSAIFTT : Human T-cell Binding 0.2 uM (MFI) was 1660 MFI
